These entries and their values trace back to PubChem BioAssay (NCI).

As shown below, each of these compounds has a reported growth inhibition value.
Experiment: NCI Yeast Anticancer Drug Screen. Data for the sgs1 mgt1 strain (AID 161);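 further: 0% = growth of cultures given vehicle only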
Conditions: S. cerevisiae sgs1 mgt1 strain, at 50.0 µM, hits give high values
Compounds without any hit were thinned out: in the full panel of roughly 79,000, 15% have a hit.
Quick reminder: number only, in %, skip the unit.

compound | growth inhibition (%)
O=C(c1ccc(Br)cc1)C1SC2(C(=O)c3ccc(Br)cc3)SC(C(=O)c3ccc(Br)cc3)C(C(=O)c3ccc(Br)cc3)SC2(C(=O)c2ccc(Br)cc2)SC1C(=O)c1ccc(Br)cc1 (stereo not drawn) | -17.4
CCCCCCC1CCC(O)CC1 (stereo not drawn) | -8.05
CC(C)C(=O)Nc1ccccc1 | 2.7
O=C1c2ccccc2SC[C@@H]2CCCN12 | -3.6
COc1cccc2c(SCC(=O)Nc3ccccc3-c3ccccc3NC(=O)CSc3c4ccccc4nc4c(OC)cccc34)c3ccccc3nc12 | -15.8
COC(=O)c1cc2ccccc2[nH]1 | -7.6

Which growth inhibition is reported for this compound? CN(C)c1nc(OC2C(C3COC(C)(C)O3)OC3OC(C)(C)OC32)nc(N(C)C)n1 (stereo not drawn)
9.65

Next up: CC1=C(C(=O)Nc2ccccc2)C(c2ccc(C3C(C(=O)Nc4ccccc4)=C(C)NC(C)=C3C(=O)Nc3ccccc3)cc2)C(C(=O)Nc2ccccc2)=C(C)N1
53

Input CSCNC(=O)Nc1ccccc1
19.1
